# measurement_notes: Inhibition of HCV NS5B polymerase-mediated RNA synthesis
# Parameters: species or system Hepacivirus hominis
endpoint: EC50

Prompt: Bench note: what EC50 did [N-]=[N+]=N[C@]1(CO)O[C@@H](n2ccc(N)nc2=O)[C@H](O)[C@@H]1O show?
Completion: 1280 nM

----------
In this section we review reported CC50 values for a set of molecules.
# measurement_notes: Cytotoxicity against human 2209-23 cells assessed as cell viability by WST-1 assay
# Assay type: cell-based

Answered cases to consult:
[N-]=[N+]=N[C@]1(CO)O[C@@H](n2ccc(N)nc2=O)[C@@H](F)[C@@H]1O [RO-0622] | > 100 µM
[N-]=[N+]=N[C@]1(CO)O[C@@H](n2ccc(N)nc2=O)[C@H](F)[C@@H]1O | > 100 µM
[N-]=[N+]=N[C@]1(CO)O[C@@H](n2ccc(N)nc2=O)[C@H](O)[C@@H]1O [4'-AZIDOCYTIDINE] | > 2000 µM
[N-]=[N+]=N[C@]1(CO)O[C@@H](n2ccc(N)nc2=O)[C@@H](O)[C@@H]1O | > 1000 µM

Prompt: Bench note: what CC50 did [N-]=[N+]=N[C@]1(CO)O[C@@H](n2ccc(N)nc2=O)[C@H](O)[C@@H]1F show?
Completion: > 100 µM

Prompt: Bench note: what CC50 did [N-]=[N+]=N[C@]1(CO)O[C@@H](n2ccc(N)nc2=O)[C@H](O)[C@H]1F show?
Completion: > 100 µM

Prompt: Bench note: what CC50 did [N-]=[N+]=N[C@]1(CO)O[C@@H](n2ccc(N)nc2=O)C(F)(F)[C@@H]1O show?
Completion: > 100 µM

Prompt: Bench note: what CC50 did Nc1ccn([C@@H]2O[C@H](CO)[C@@H](O)[C@@H]2F)c(=O)n1 show?
Completion: > 100 µM
